# Test system: herpes simplex virus-2 (G strain)
# ASSAY_NAME: Inhibition of virus-induced cytopathicity, HSV-2
# Type: cell-based
# EXPERIMENTAL_CONTEXT: Human alphaherpesvirus 2, HEL, read-out: EC50 HSV-2
pEC50: −log10 of the molar value.
MEASURED_QUANTITY: pEC50

Guide cases for pEC50, answers given:
• O=c1c2ncn(CCC(CO)CO)c2nc2[nH]c(-c3ccc(C(F)(F)F)cc3)cn12 = 4.39 to 4.55
• O=c1c2ncn(CCC(CO)CO)c2nc2[nH]c(-c3ccc(F)cc3)cn12 = 4.39 to 4.55

API: the following record is the query input.
Any idea what its pEC50 is? The compound is `O=c1c2ncn(CCC(CO)CO)c2nc2[nH]c(-c3ccc4c(c3)OCO4)cn12`
4.39 to 4.55
